Assay Remarks: Oral bioavailability in mouse at 5 mg/kg
Assay type: ADME, organism-based
Reported Conditions: in vivo
Assay Metric: bioavailability (%)
State just the number; it will be interpreted in %.

Structure As Smiles: C[C@@H](n1c(=O)[nH]c2ccc(C3=NC(=O)[C@](C)(c4cnc(C(F)(F)F)nc4)N3)cc21)C(C)(C)C
bioavailability (%): 54

Structure As Smiles: C[C@H](NC(=O)c1ccc2[nH]c(=O)n([C@H](C)C(C)(C)C)c2c1)c1cnc(C(F)(F)F)nc1
bioavailability (%): 28

Now, please, on to the next compound.
Task item: Entry C[C@@H](n1c(=O)[nH]c2ccc(C3=NC(=O)[C@](C)(c4ccc(C(F)(F)F)nc4)N3)cc21)C(C)(C)C has what bioavailability?
Reply: 66

====

Assay Remarks: Solubility of compound in FeSSIF incubated for 48 to 72 hrs by LC-MS analysis
Assay type: physicochemical
Reported Conditions: time 48-72 hrs
Each entry below lists one item and its recorded solubility value.
Just the number please, in µM, no unit attached.

// solved cases for solubility follow
Structure As Smiles: C[C@H](NC(=O)c1ccc2[nH]c(=O)n([C@H](C)C(C)(C)C)c2c1)c1cnc(C(F)(F)F)nc1
Assay Metric: solubility
Unit Info: µM
Value Reported: 298
--
Structure As Smiles: C[C@@H](n1c(=O)[nH]c2ccc(C3=NC(=O)[C@](C)(c4ccc(C(F)(F)F)nc4)N3)cc21)C(C)(C)C
Assay Metric: solubility
Unit Info: µM
Value Reported: 500

Attention now shifts to the item below.
Task item: Quick one: solubility for C[C@@H](n1c(=O)[nH]c2ccc(C3=NC(=O)[C@](C)(c4cnc(C(F)(F)F)nc4)N3)cc21)C(C)(C)C ?
Reply: 485

====

Assay Remarks: Permeability of compound across apical to basolateral in MDCK-II cells incubated for 2 hrs by LC-MS/MS analysis
Assay type: ADME, cell-based, Canis lupus familiaris
Reported Conditions: dog, read-out: permeability
Assay Metric: Papp A→B at 2 h (×10⁻⁶ cm/s)
Field: numeric (×10⁻⁶ cm/s). Do not append units.

See these solved cases before continuing.
Structure As Smiles: C[C@H](NC(=O)c1ccc2[nH]c(=O)n([C@H](C)C(C)(C)C)c2c1)c1cnc(C(F)(F)F)nc1
Unit Info: ×10⁻⁶ cm/s
Papp A→B at 2 h: 21
--
Structure As Smiles: C[C@@H](n1c(=O)[nH]c2ccc(C3=NC(=O)[C@](C)(c4ccc(C(F)(F)F)nc4)N3)cc21)C(C)(C)C
Unit Info: ×10⁻⁶ cm/s
Papp A→B at 2 h: 15

Then there is this molecule:
Task item: Data request, read-out Papp A→B at 2 h, for C[C@@H](n1c(=O)[nH]c2ccc(C3=NC(=O)[C@](C)(c4cnc(C(F)(F)F)nc4)N3)cc21)C(C)(C)C
Reply: 17

====

Assay Remarks: Microsomal stability in human liver microsome assessed as intrinsic clearance at 1 uM incubated for 20 mins in presence of NADPH by LC-MS/MS analysis
Type: ADME
Reported Conditions: liver microsomes, read-out: CLH
We begin with a simple list: items and their reported microsomal CLint at 1 µM.
I only need the number, in µL/min/mg, no unit after it.

Recorded results for 2 compounds are shown here.
Structure As Smiles: C[C@@H](n1c(=O)[nH]c2ccc(C3=NC(=O)[C@](C)(c4cnc(C(F)(F)F)nc4)N3)cc21)C(C)(C)C
Assay Metric: microsomal CLint at 1 µM
Unit Info: µL/min/mg
Value Reported: 14
//
Structure As Smiles: C[C@@H](n1c(=O)[nH]c2ccc(C3=NC(=O)[C@](C)(c4ccc(C(F)(F)F)nc4)N3)cc21)C(C)(C)C
Assay Metric: microsomal CLint at 1 µM
Unit Info: µL/min/mg
Value Reported: 34

--- query ---
Task item: Quick one: microsomal CLint at 1 µM of C[C@H](NC(=O)c1ccc2[nH]c(=O)n([C@H](C)C(C)(C)C)c2c1)c1cnc(C(F)(F)F)nc1 ?
Reply: 14

====

Target: N-acetyllactosaminide beta-1,3-N-acetylglucosaminyltransferase 4 (Homo sapiens, UniProt Q9C0J1)
Sequence (Q9C0J1 whole entry): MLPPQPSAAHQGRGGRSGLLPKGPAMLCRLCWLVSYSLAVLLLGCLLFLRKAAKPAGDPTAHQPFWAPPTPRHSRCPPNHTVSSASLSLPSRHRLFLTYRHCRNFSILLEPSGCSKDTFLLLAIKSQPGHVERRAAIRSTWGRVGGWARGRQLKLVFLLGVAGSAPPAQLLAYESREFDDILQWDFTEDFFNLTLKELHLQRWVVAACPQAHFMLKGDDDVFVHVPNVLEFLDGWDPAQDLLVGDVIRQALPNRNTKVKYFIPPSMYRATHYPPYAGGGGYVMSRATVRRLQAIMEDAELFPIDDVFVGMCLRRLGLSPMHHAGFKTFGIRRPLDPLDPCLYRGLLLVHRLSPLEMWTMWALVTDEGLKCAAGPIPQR
Below: a set of entries, each annotated with reported IC50.

Structure As Smiles: C[C@H](NC(=O)c1ccc2[nH]c(=O)n([C@H](C)C(C)(C)C)c2c1)c1cnc(Cl)nc1
Value Reported: > 250 µM

Task item: Please report the recorded IC50 for C[C@H](NC(=O)c1ccc2[nH]c(=O)n([C@H](C)C(C)(C)C)c2c1)c1ccc(Cl)cc1 .
Reply: > 250 µM

Task item: Return reported IC50; argument: CC(C)Cn1c(=O)[nH]c2ccc(C(=O)O)cc21
Reply: > 250 µM

Task item: Given the entry C[C@@H](NC(=O)c1ccc2[nH]c(=O)n([C@H](C)C(C)(C)C)c2c1)c1ccc(Cl)cc1 , report its measured IC50.
Reply: > 250 µM

Task item: Dear colleague, I am looking for the recorded IC50 of the following compound: C[C@@H](n1c(=O)[nH]c2ccc(C(=O)O)cc21)C(C)(C)C
Reply: 122 µM

Task item: Value lookup for IC50; key = C[C@H](NC(=O)c1ccc2[nH]c(=O)n([C@H](C)C(C)(C)C)c2c1)c1ccc(C(F)(F)F)cn1
Reply: > 250 µM

====

Assay Remarks: Microsomal stability in rat liver microsome assessed as intrinsic clearance at 1 uM incubated for 20 mins in presence of NADPH by LC-MS/MS analysis
Assay type: ADME
Reported Conditions: liver microsomes, read-out: CLH
Assay Metric: microsomal CLint at 1 µM (µL/min/mg)
Number only, in µL/min/mg; omit the unit.

Example entries begin here.
Structure As Smiles: C[C@H](NC(=O)c1ccc2[nH]c(=O)n([C@H](C)C(C)(C)C)c2c1)c1cnc(C(F)(F)F)nc1
microsomal CLint at 1 µM (µL/min/mg): 42
--
Structure As Smiles: C[C@@H](n1c(=O)[nH]c2ccc(C3=NC(=O)[C@](C)(c4ccc(C(F)(F)F)nc4)N3)cc21)C(C)(C)C
microsomal CLint at 1 µM (µL/min/mg): 14

Let's switch to this compound now.
Task item: Quick one: microsomal CLint at 1 µM of C[C@@H](n1c(=O)[nH]c2ccc(C3=NC(=O)[C@](C)(c4cnc(C(F)(F)F)nc4)N3)cc21)C(C)(C)C ?
Reply: 15

====

Target: UniProt:Q9NY97
Assay Remarks: Inhibition of B3GNT2 (unknown origin) using N-acetyl-lactosamine and UDP-GlcNAc as substrate incubated for 1.5 to 2 hrs by UDP-Glo based analysis
Reported Conditions: read-out: IC50
Below is a list of entries, each paired with its recorded log10(IC50) value.
Response schema: value (number) is log10 of IC50 in units of nM.

Structure As Smiles: C[C@@H](n1c(=O)[nH]c2ccc(C3=NC(=O)[C@](C)(c4ccc(C(F)(F)F)cn4)N3)cc21)C(C)(C)C
Assay Metric: log10(IC50)
Value Reported: 1.48
--
Structure As Smiles: C[C@H](NC(=O)c1ccc2[nH]c(=O)n([C@H](C)C(C)(C)C)c2c1)c1cnc(Cl)cn1
Assay Metric: log10(IC50)
Value Reported: 2.95
--
Structure As Smiles: C[C@@H](n1c(=O)[nH]c2ccc(C(=O)O)cc21)C(C)(C)C
Assay Metric: log10(IC50)
Value Reported: 2.41
--
Structure As Smiles: C[C@@H](n1c(=O)[nH]c2ccc(C3=N[C@@](C)(c4cc5ccccc5[nH]4)NC3=O)cc21)C(C)(C)C
Assay Metric: log10(IC50)
Value Reported: 1.74
--
Structure As Smiles: C[C@@H](n1c(=O)[nH]c2ccc(C3=NC(=O)[C@@](C)(c4ccc(Cl)cn4)N3)cc21)C(C)(C)C
Assay Metric: log10(IC50)
Value Reported: 2.71

Task item: Query (molecule): C[C@H](NC(=O)c1ccc2[nH]c(=O)n([C@H](C)C(C)(C)C)c2c1)c1ccc(Cl)cc1 ; field requested: log10(IC50)
Reply: 2.46

Task item: Could you tell me which log10(IC50) is on file for C[C@@H](n1c(=O)[nH]c2ccc(C(=O)NCc3ccc(Cl)cc3)cc21)C(C)(C)C ?
Reply: 2.79

Task item: For the molecule C[C@@H](n1c(=O)[nH]c2ccc(C(=O)N3CCOCC3)cc21)C(C)(C)C , what log10(IC50) is on record?
Reply: 4.42

====

Assay Remarks: Half life in mouse at 5 mg/kg, po
Type: ADME, organism-based
Reported Conditions: in vivo
Assay Metric: half-life (h)
Please state the figure in h; there is no need to write the unit.

Task item: Need half-life of C[C@H](NC(=O)c1ccc2[nH]c(=O)n([C@H](C)C(C)(C)C)c2c1)c1cnc(C(F)(F)F)nc1 , thanks.
Reply: 1.9

====

Target: N-acetyllactosaminide beta-1,3-N-acetylglucosaminyltransferase 2 (Homo sapiens, UniProt Q9NY97)
Sequence (Q9NY97 whole entry): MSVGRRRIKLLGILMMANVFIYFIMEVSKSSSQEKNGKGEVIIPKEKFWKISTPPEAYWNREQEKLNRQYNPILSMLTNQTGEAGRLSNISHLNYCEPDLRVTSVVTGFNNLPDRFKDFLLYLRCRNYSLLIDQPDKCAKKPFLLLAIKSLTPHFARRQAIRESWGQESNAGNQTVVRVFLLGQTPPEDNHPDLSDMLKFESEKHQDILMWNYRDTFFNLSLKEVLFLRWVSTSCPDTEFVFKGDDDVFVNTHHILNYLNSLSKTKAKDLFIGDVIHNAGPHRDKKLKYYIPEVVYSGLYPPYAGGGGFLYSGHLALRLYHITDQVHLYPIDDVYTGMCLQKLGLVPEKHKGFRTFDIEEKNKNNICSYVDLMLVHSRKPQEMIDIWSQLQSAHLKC
Assay Remarks: Inhibition of B3GNT2 (unknown origin) using N-acetyl-lactosamine and UDP-GlcNAc as substrate incubated for 1.5 to 2 hrs by UDP-Glo based analysis
Reported Conditions: read-out: IC50
// classify(record): look up IC50 in ranges A (below 60 nM), B (60 nM to below 200 nM), C (200 nM or more)

Solved cases (10 shown):
Compound: C[C@@H](NC(=O)c1ccc2[nH]c(=O)n([C@H](C)C(C)(C)C)c2c1)c1ccc(Cl)cc1
Assigned Category: C
//
Compound: C[C@@H](n1c(=O)[nH]c2ccc(C3=N[C@@](C)(c4cnc(C(F)(F)F)nc4)NC3=O)cc21)C(C)(C)C
Assigned Category: A
//
Compound: CC(C)NC(=O)c1ccc2[nH]c(=O)n([C@H](C)C(C)(C)C)c2c1
Assigned Category: C
//
Compound: C[C@@H](n1c(=O)[nH]c2ccc(C3=NC(=O)[C@](C)(c4ccc(C(F)(F)F)nc4)N3)cc21)C(C)(C)C
Assigned Category: A
//
Compound: Cc1ccc([C@]2(C)NC(c3ccc4[nH]c(=O)n([C@H](C)C(C)(C)C)c4c3)=NC2=O)nc1
Assigned Category: B
//
Compound: C[C@@H](n1c(=O)[nH]c2ccc(C3=C[C@@](C)(c4cnc(C(F)(F)F)nc4)OC3=O)cc21)C(C)(C)C
Assigned Category: A
//
Compound: C[C@@H](n1c(=O)[nH]c2ccc(C3=NC(=O)[C@](C)(c4ccccc4)N3)cc21)C(C)(C)C
Assigned Category: C
//
Compound: C[C@H](NC(=O)c1ccc2[nH]c(=O)n([C@H](C)C(C)(C)C)c2c1)c1ncc(Cl)cn1
Assigned Category: C
//
Compound: C[C@@H](n1c(=O)[nH]c2ccc(C3=N[C@@](C)(c4ccc5nccn5c4)NC3=O)cc21)C(C)(C)C
Assigned Category: C
//
Compound: C[C@@H](n1c(=O)[nH]c2ccc(C3=N[C@@](c4cccnc4)(c4nnc[nH]4)NC3=O)cc21)C(C)(C)C
Assigned Category: A

Task item: Band of Cc1ncc([C@H](C)NC(=O)c2ccc3[nH]c(=O)n([C@H](C)C(C)(C)C)c3c2)cn1 ?
Reply: B

Task item: Assign a category based on measured IC50 for C[C@@H](n1c(=O)[nH]c2ccc(C3=NC(=O)[C@](C)(c4ncc(Cl)cn4)N3)cc21)C(C)(C)C and give only the class name.
Reply: B

Task item: State the class of the compound shown: C[C@@H](n1c(=O)[nH]c2ccc(C3=N[C@]4(CCc5cc(Br)ccc54)NC3=O)cc21)C(C)(C)C
Reply: A
